- Target entity: human EGFR (huEGFR) over-expressed on mcl-1-/- mouse embryonic fibroblasts (human, UniProt P00533 25-1210)
- Protocol text: cell-based or functional assay
Catalogue of binders with associated huEGFR+ mcl-1-/- MEF EC50

{"Binder": "AbK-AAA (antibody, human IgG1, kappa, V domains shown, synthon AAA on reduced interchain cysteines; average DAR 1.6 per ADC) VH: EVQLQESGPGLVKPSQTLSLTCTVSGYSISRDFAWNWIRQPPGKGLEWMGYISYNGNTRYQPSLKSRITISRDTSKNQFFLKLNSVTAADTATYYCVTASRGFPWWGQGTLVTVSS VL: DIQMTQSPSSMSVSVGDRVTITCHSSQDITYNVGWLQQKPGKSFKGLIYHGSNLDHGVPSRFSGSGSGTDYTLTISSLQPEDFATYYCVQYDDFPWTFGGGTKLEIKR", "huEGFR+ mcl-1-/- MEF EC50": "3.4 nM"}

We next turn to a different binder, shown below.
Per the records, this binder ( AbK-CZ (antibody, human IgG1, kappa, V domains shown, synthon CZ on reduced interchain cysteines; average DAR 3.4 per ADC) VH: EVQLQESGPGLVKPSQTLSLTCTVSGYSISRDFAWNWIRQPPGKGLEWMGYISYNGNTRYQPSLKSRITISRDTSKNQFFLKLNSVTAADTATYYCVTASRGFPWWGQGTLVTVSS VL: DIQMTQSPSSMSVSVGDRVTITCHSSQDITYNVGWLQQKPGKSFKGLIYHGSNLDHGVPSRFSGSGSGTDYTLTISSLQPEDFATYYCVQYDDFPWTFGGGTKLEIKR ) has huEGFR+ mcl-1-/- MEF EC50 equal to 0.1 nM

Every entry's value here was drawn from patent US20240199745A1.
